The origin of these recorded values is PubChem BioAssay (NCATS).

experiment: P-glycoprotein substrates identified in KB-8-5-11 adenocarcinoma cell line, qHTS therapeutic library screen (AID 1346987); settings: KB-8-5-11 (P-gp overexpressing) viability, CellTiter-Glo, 72 h; series mostly up to 44.5 µM; further: nearly all actives have a fitted effect of over 65% in size
Results filed as inconclusive are left out. Calls of active or inactive are those of the source. The call rests on the fitted dose curve; in most records, active means well fitted inhibition curve with a large enough effect; inconclusive means small, poorly fitted or top-dose-only effect; inactive means flat fitted curve, though single readings scatter. Where a SMILES comes first, the peptide text is derived from it. [ ]: non-standard residue; d: D form. ξ: configuration not given here. ξLac(3-iPr) = CC(C)CC(O)C(=O)O; NMeV = CN[CH](C(=O)O)C(C)C; βAla = NCCC(=O)O
// classify into 1 = active, 0 = inactive

Compound	Class
OCCc1ccc(O[C@@H]2O[C@H](CO)[C@@H](O)[C@H](O)[C@H]2O)cc1	0
C/C=C/C=C/C=C/C(=O)OC1C=C(C=O)C(O)(C(=O)O)C2(C)CCCC(C)(C)C12 (stereo unspecified)	0
CC(C)CC1OC(=O)C2CCCN2C(=O)CCNC(=O)C(Cc2ccccc2)NC(=O)C(C(C)C)N(C)C(=O)C(C(C)C)N(C)C1=O (stereo unspecified) (cyclo([ξLac(3-iPr)][NMeV][NMeV]F[βAla]P); configuration not given here)	0
OC[C@@]1(O)CO[C@@H](OC[C@H]2O[C@@H](Oc3c[nH]c4ccccc34)[C@H](O)[C@@H](O)[C@@H]2O)[C@@H]1O	0

Q: Tell me the recorded outcome of this test for CCC(C)C(=O)O[C@H]1CCC=C2C=C[C@H](C)[C@H](CC[C@@H](O)C[C@@H](O)CC(=O)O)[C@H]21 (stereo partly specified) .
Ans: 0

Q: Tell me the recorded outcome of this test for CC1(C)CCC(C)(C)c2cc(C3(c4ccc(C(=O)O)cc4)OCCO3)ccc21 .
Ans: 0

Q: Tell me the recorded outcome of this test for COc1ccc(C2(O)c3ccccc3NC(=O)C2O)cc1 (stereo unspecified) .
Ans: 0

Q: Tell me the recorded outcome of this test for CCC(CC)C(=O)Nc1sc2c(c1C#N)CCC(C(C)(C)CC)C2 (stereo unspecified) .
Ans: 0

Q: Tell me the recorded outcome of this test for C=C(C(=O)O)C1CC(O)C2(C)CCCC(=C)C2C1 (stereo unspecified) .
Ans: 0

----------
experiment: P-glycoprotein substrates identified in KB-8-5-11 adenocarcinoma cell line, qHTS therapeutic library screen (AID 1346987); details: KB-8-5-11 (P-gp overexpressing) viability, CellTiter-Glo, 72 h; series mostly up to 44.5 µM; further: nearly all actives have a fitted effect of over 65% in size
Inconclusive results are not listed. Active and inactive are the calls of the source. The call rests on the fitted dose curve; in most records, active means well fitted inhibition curve with a large enough effect; inconclusive means small, poorly fitted or top-dose-only effect; inactive means flat fitted curve, though single readings scatter.
// classify into yes for active, no for inactive

A selection of reference data follows.
Molecule	Class
CCC1C(=O)N(C)c2cnc(Nc3ccc(C(=O)NC4CCC(N5CCN(CC6CC6)CC5)CC4)cc3OC)nc2N1C(C)C (centres undefined)	yes
Cc1cc(NC(=O)Nc2ccc(F)c(F)c2)n(-c2ccccc2)n1	no
C=CC(C)(O)C(O)CC1C(C)(O)C(O)C(O)C2C(C)(C)CCCC21C (centres undefined)	no
CC(=O)OC1C[C@@]2(C)[C@@H](CC[C@@H](C)[C@]23Cc2c(O)cc4c(c2O3)CNC4=O)C(C)(C)[C@@H]1O (some centres undefined)	no
CC1=C(C)C(=O)OC(C(C)C2CCC3C4C5OC5C5(O)CC(OC6OC(CO)C(OC7OC(C)C(O)C(O)C7O)C(O)C6O)CC(O)C5(C)C4CCC23C)C1 (centres undefined)	no

Q: Tell me the recorded outcome of this test for C=C1C[C@]23C[C@H]1CC[C@H]2[C@]1(C)CCC[C@@](C)(C(=O)O)[C@H]1[C@@H]3C(=O)O .
Ans: no
